# credit: ChEMBL document CHEMBL1131937

- assayed-system: Adrenergic receptor alpha-2 (Rattus norvegicus, UniProt P22086+P19328+P22909)
- assay-details: Inhibition of [3H]clonidine binding to the rat alpha-2-adrenoceptor
- Type: protein assay
- Design: unit not given here
Mark true (1) for reported Log Ki of 6 or greater; mark false (0) for anything smaller.

input: # bool: Log Ki of `N#Cc1ccc2c(c1)CNCC2` >= 6
output: false (0)

input: # bool: Log Ki of `C[C@H]1Cc2ccc([N+](=O)[O-])cc2CN1` >= 6
output: false (0)

input: # bool: Log Ki of `NCc1cccc2ccccc12` >= 6
output: false (0)

input: # bool: Log Ki of `CS(=O)(=O)c1ccc2c(c1)CNCCC2` >= 6
output: false (0)

input: # bool: Log Ki of `C[C@H]1CCc2ccc(Cl)c(Cl)c2CN1` >= 6
output: false (0)

input: # bool: Log Ki of `C[C@@H]1CCc2ccc(Cl)c(Cl)c2CN1` >= 6
output: false (0)

input: # bool: Log Ki of `O=[N+]([O-])c1ccc2c(c1)CNCCCC2` >= 6
output: false (0)

input: # bool: Log Ki of `Nc1ccc2c(c1)CNCC2` >= 6
output: false (0)

input: # bool: Log Ki of `COc1cccc2c1CCNC2` >= 6
output: true (1)

input: # bool: Log Ki of `O=[N+]([O-])c1cc2c(c([N+](=O)[O-])c1)CCNC2` >= 6
output: false (0)

input: # bool: Log Ki of `NS(=O)(=O)c1ccc2c(c1)CNCCC2` >= 6
output: false (0)

input: # bool: Log Ki of `OC[C@H]1Cc2ccccc2CN1` >= 6
output: false (0)

input: # bool: Log Ki of `COc1ccc(OC)c2c1CCNC2` >= 6
output: true (1)

input: # bool: Log Ki of `NC(=O)c1ccc2c(c1)CNCC2` >= 6
output: false (0)

input: # bool: Log Ki of `C[C@H]1Cc2ccccc2CN1` >= 6
output: true (1)

input: # bool: Log Ki of `C[C@@H]1Cc2ccccc2CN1` >= 6
output: false (0)

input: # bool: Log Ki of `O=C(O)c1ccc2c(c1)CNCC2` >= 6
output: false (0)

input: # bool: Log Ki of `c1ccc2c(c1)CNCCN2` >= 6
output: false (0)

input: # bool: Log Ki of `O=S(=O)(c1ccc2c(c1)CNCC2)C(Cl)(Cl)Cl` >= 6
output: false (0)

input: # bool: Log Ki of `C[C@@H](N)c1ccc(Cl)c(Cl)c1` >= 6
output: false (0)

input: # bool: Log Ki of `O=C(c1ccccc1)c1ccc2c(c1)CNCC2` >= 6
output: false (0)

input: # bool: Log Ki of `COC(=O)c1ccc2c(c1)CNCC2` >= 6
output: false (0)

input: # bool: Log Ki of `C[C@@H]1Cc2ccc(Cl)c(Cl)c2CN1` >= 6
output: true (1)
